System: cerebral infarct
experiment.notes: Rodent model of cerebral stroke (permanent middle cerebral artery occlusion)
Format: in vivo, mice
conditions: 1 mg/kg BW IV 60 min after ligation; vs vehicle
quantity.kind: % Infarct reduction

> print(dat)
                                   compound           result
1     Nc1ncnc2nc(-c3ccccn3)c(-c3ccccn3)nc12  Not significant
2  Nc1ncnc2nc(-c3ccc(O)cc3)c(-c3ccc(O)cc3)nc12.O=S(=O)(O)O              53%
3  CN(C)S(=O)(=O)c1ccc2c(c1)/C(=C/c1cc3c([nH]1)CCCC3)C(=O)N2 [SU6656, reference compound]  Not significant
4  Cc1ccc(-c2nn(C(C)(C)C)c3ncnc(N)c23)cc1 [PP1, reference compound]  Not significant

* * *

target.of.assay: PI3Kγ (p120γ) (Homo sapiens, UniProt P48736)
Sequence (P48736 whole entry): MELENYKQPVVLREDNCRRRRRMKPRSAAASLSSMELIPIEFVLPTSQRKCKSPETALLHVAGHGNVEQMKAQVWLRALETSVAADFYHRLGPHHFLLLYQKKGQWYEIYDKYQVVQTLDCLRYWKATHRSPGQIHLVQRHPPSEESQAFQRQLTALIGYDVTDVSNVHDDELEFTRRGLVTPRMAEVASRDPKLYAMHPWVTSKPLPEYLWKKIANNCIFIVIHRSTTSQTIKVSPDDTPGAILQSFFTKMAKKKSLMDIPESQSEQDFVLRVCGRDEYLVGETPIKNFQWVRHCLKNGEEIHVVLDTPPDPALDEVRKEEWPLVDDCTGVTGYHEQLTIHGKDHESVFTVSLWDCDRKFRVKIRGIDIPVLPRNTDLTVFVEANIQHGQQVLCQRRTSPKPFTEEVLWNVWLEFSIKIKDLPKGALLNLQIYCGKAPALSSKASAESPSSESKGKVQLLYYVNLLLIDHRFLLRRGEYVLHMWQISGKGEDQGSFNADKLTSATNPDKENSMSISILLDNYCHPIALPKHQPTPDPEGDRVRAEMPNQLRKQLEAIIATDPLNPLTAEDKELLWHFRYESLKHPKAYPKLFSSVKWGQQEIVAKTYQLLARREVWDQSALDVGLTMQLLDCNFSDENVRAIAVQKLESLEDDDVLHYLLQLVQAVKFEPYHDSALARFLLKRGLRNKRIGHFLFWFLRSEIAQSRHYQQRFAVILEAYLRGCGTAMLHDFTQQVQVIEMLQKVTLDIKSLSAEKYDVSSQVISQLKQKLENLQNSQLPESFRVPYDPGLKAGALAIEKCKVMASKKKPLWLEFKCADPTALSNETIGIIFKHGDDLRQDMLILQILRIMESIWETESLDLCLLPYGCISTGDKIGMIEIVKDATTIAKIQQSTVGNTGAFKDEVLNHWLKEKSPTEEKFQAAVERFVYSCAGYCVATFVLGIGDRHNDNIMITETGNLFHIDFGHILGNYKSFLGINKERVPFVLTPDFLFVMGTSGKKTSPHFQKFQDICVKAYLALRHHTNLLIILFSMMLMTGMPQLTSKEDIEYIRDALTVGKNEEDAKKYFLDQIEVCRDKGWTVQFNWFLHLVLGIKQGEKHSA
quantity.kind: IC50

> print(dat)
                        substance.smiles                           target.of.assay  quantity.kind  result
1  Nc1nc(N)c2nc(-c3cccc4[nH]ccc34)cnc2n1  PI3Kγ (p120γ) (Homo sapiens, UniProt P48736)           IC50   85 nM
